System: SGLT1
RUN DESCRIPTION: Bidirectional transport in MDCK cell monolayers with selective transporter inhibitors or substrates
Format: in vitro ADME, canine
TEST CONTEXT: dog, with phloridzin 0.5 mM, + Phloridzin 0.5 mM (SGLT1), read-out: ER
MEASUREMENT TYPE: efflux ratio at 120 min, 2 μM
Respond with the number and no other words.

# efflux ratio at 120 min, 2 μM of COc1ccc2c3c([nH]c2c1)C(C)=NCC3 [Harmaline] = 1.29

---

Tested on: BCRP
RUN DESCRIPTION: Bidirectional transport in MDCK cell monolayers with selective transporter inhibitors or substrates
Format: in vitro ADME, canine
TEST CONTEXT: dog, with Ko143 0.01 mM (10 μM), + Ko143 0.01 mM (BCRP), read-out: ER
MEASUREMENT TYPE: efflux ratio at 120 min, 2 μM
Respond with the number and no other words.

# efflux ratio at 120 min, 2 μM of COc1ccc2c3c([nH]c2c1)C(C)=NCC3 [Harmaline] = 1.16
